Assay: Toxicity liver stage against HepG2, at 10uM
Format: cell-based
Set-up: test concentration 10 uM, cell line HepG2-A16-CD81EGFP
Conditions: human, HepG2-A16-CD81EGFP cells; read-out: INHIBITION
Parameter cytotoxicity at 10 µM: see the listing below.
Value expressed in %; do not type the unit.

# molecule, cytotoxicity at 10 µM [%]
measured = [
    ("O=C1COc2cc(C(=O)N3CCCC(n4ccnc4)C3)ccc2N1 (configuration not stated)", 1.75),
    ("c1cc2c(cc1OC[C@@H]1CCCN3CCCC[C@H]13)OCCO2", -2.48),
    ("CC(C)c1cc(C(F)(F)F)n2nc(C3CCN(S(C)(=O)=O)C3)cc2n1 (configuration not stated)", -1.14),
    ("Cc1cc(-c2ccncc2)ccc1OCC(N)=O", 18.1),
    ("Cc1occc1CNc1ncccc1S(N)(=O)=O", -149),
]

Moving on to another molecule below.
Requested field: cytotoxicity at 10 µM. Item: CCSCCn1cc(-c2ncc[nH]2)nn1 -41.4

###

Assay: Toxicity liver stage against HepG2, at 10uM
Type: cell-based
Parameters: test concentration 10 uM, cell line HepG2-A16-CD81EGFP
Details: human, HepG2-A16-CD81EGFP cells; read-out: INHIBITION
quantity name: cytotoxicity at 10 µM (%)
Just the number in %, nothing appended.

# compound, unit symbol, cytotoxicity at 10 µM
data = [
    ("CC(C)c1nc(C(=O)NCCn2ccnc2)nn1-c1cccc(F)c1", "%", -7.64),
    ("CCN1CC(C(=O)NCc2ccc3c(c2)nc(C)n3C)CCC1=O (centres undefined)", "%", -6.9),
    ("C[C@H]1C[C@H]2CN(C(=O)c3ccncn3)CC[C@H]2O1", "%", -20.9),
    ("c1ccc(CN2C[C@H]3CCC[C@@]3(COCC3CC3)C2)nc1", "%", 1.55),
    ("CC(O)CN1CCN(C(=O)c2cn(-c3ccccc3Cl)nn2)CC1 (centres undefined)", "%", 0.361),
]

What value of measured cytotoxicity at 10 µM is listed for Fc1cccc(F)c1Cn1c(C2CCNCC2)cc2cccnc21 ? -3.4

Requested read-out: cytotoxicity at 10 µM. Entry: CNC(=O)CS(=O)(=O)C1CCN(S(=O)(=O)c2cccnc2)CC1 -1.68

cytotoxicity at 10 µM for CCn1nc(CC(C)C)cc1C(=O)N1CC(N2CCCCC2C)C1 (centres undefined) ? -12.4

Could you share which cytotoxicity at 10 µM value was measured for CCOCc1cnc2n1CCN(Cc1cccs1)C2C (centres undefined) ? 11.3

Quick one: cytotoxicity at 10 µM for COc1ccccc1CN1CC[C@]2(C[C@@H](OCC(=O)N(C)C)CO2)C1 ? -112

###

The compounds listed here are annotated with their cytotoxicity at 10 µM.
Assay: Toxicity liver stage against HepG2, at 10uM
Format: cell-based
Parameters: test concentration 10 uM, cell line HepG2-A16-CD81EGFP
Conditions: human, HepG2-A16-CD81EGFP cells; read-out: INHIBITION
Please state the figure in %; there is no need to write the unit.

# compound, unit symbol, cytotoxicity at 10 µM
data = [
    ("CN(CC(=O)NS(=O)(=O)c1cccs1)Cc1ccccc1", "%", -9.71),
    ("CS(=O)(=O)c1ccc(NC(=O)NCc2ccc3c(c2)CCC3)cn1", "%", -4.92),
    ("CCNC(=O)[C@@H]1C[C@H](N)CN1C(=O)Cc1cc(C)ccc1C", "%", 2.43),
    ("CCC=C(C)C(=O)NCc1ccnc(OC2CCOCC2)c1", "%", 5.48),
    ("O=C1CC(c2ccc(C(=O)O)cc2)c2ncn(-c3cccc(Cl)c3)c2N1 (stereo unspecified)", "%", -2.17),
    ("CCc1nccc(CN2CCCC(c3nn(C)c(=O)n3CC)C2)n1 (stereo unspecified)", "%", -3.69),
]

Recorded cytotoxicity at 10 µM of Cc1ccc(-c2cc(C(=O)NCCN3CCCS3(=O)=O)[nH]n2)cc1 , please. -7.57

Please report the recorded cytotoxicity at 10 µM for Cc1occc1C(=O)Nc1ccc(C(=O)NC[C@H]2CCCN2)cc1 . -10.6
